For each record, write down the corresponding EC50.
# TGT: ERR1 (also known as ERR-α or ERR-1) (Homo sapiens)
# Sequence (P11474 193-421 limits assumed, species assumed): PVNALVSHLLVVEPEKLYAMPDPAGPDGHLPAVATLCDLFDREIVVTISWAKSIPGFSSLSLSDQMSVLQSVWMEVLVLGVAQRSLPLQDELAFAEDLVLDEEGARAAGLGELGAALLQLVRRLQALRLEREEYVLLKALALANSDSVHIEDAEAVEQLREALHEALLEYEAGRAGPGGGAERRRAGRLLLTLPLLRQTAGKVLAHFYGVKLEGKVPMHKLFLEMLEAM
# TEST_PROTOCOL: TR-FRET assay (disruption of co-activator peptide binding to ERR1 LBD)
# CONDITION: 6 nM 6His-ERR1LBD, 6 nM GST-SRC-2 peptide; average of 3 independent experiments
Enter the number, and then the unit.

Some solved entries appear below for comparison.
| COMPOUND | EC50 |
| --- | --- |
| CN(C)CCN1C(=O)S/C(=C\c2ccc3c(cnn3Cc3ccc(C(F)(F)F)cc3C(F)(F)F)c2)C1=O | 33 nM |
| N[C@H]1CCC[C@H](CN2C(=O)S/C(=C\c3ccc4c(cnn4Cc4ccc(Cl)cc4C(F)(F)F)c3)C2=O)C1 | 68 nM |

[Q] For COC(=O)C(C1CCN(C(=O)OC(C)(C)C)CC1)N1C(=O)S/C(=C\c2ccc3c(cnn3Cc3ccc(Cl)cc3C(F)(F)F)c2)C1=O (stereo not drawn) , what is its reported EC50?
[A] 61 nM
